# ASSAYED TARGET: CDK1/cyclin B (Homo sapiens)
# Sequence (P06493 whole entry, species assumed): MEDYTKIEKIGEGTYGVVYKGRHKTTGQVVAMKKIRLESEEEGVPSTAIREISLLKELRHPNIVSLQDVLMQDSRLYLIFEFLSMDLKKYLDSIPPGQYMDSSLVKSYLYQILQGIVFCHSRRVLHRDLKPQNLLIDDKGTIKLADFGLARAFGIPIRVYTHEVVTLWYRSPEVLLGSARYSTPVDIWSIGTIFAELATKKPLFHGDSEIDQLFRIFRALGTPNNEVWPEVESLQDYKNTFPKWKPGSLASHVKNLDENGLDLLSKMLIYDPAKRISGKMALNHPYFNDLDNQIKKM
# Sequence (P14635 whole entry partner, species assumed): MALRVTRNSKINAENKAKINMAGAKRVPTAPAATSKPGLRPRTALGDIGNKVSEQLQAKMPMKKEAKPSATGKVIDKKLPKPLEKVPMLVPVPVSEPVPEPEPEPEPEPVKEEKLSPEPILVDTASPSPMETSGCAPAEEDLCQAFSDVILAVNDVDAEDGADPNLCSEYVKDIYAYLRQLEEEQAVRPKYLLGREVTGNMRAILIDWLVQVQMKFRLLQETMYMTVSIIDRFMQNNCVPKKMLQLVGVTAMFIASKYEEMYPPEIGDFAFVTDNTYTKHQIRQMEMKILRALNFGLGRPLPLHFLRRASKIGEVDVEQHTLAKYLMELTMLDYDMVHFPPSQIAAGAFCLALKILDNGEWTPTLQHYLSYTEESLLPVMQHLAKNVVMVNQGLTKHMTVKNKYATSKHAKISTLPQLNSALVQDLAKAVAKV
# ASSAY PROTOCOL: Kinase assay CDK1/cyclin B (radioactive phosphate incorporation)
# TEST PARAMETERS: Ki calculated (Cheng-Prusoff) from experimentally determined IC50 and Km,ATP; read-out: Kinase Inhibition Ki CDK1 - cyclin B
# Method: The compounds from the examples above were investigated for their ability to inhibit the enzymatic activity of various protein kinases. This was achieved by measurement of incorporation of radioactive phosphate from ATP into appropriate polypeptide substrates. […] After washing 3 times with 75 mM aq orthophosphoric acid, plates were dried, scintillant added and incorporated radioactivity measured in a scintillation counter (TopCount, Packard Instruments, Pangbourne, Berks, UK). […]
Property: pKi; scope: individual molecules
pKi is defined as minus the log10 of a concentration measured in mol/L.

MOLECULE | RESULT NUMBER
Cc1c(-c2ccnc(Nc3cccc(CNS(C)(=O)=O)c3)n2)sc(=O)n1C [Compound 55] | 6.80
Cc1cc(Nc2nccc(-c3sc(=O)n(C)c3C)n2)ccc1Cl [Compound 15] | 6.22
Cc1[nH]c(=O)sc1-c1ccnc(Nc2cccc([N+](=O)[O-])c2)n1 [Compound 40] | 7.77
Cc1c(-c2ccnc(Nc3cc(N)cc(C(F)(F)F)c3)n2)sc(=O)n1C [Compound 71] | 6.85
Cc1c(-c2ccnc(Nc3ccc(N(C)C)cc3)n2)sc(=O)n1C [Compound 8] | 6.12

State recorded pKi with CDK1/cyclin B (Homo sapiens), entry Cc1c(-c2ccnc(Nc3cccc(O)c3)n2)sc(=O)n1C [Compound 7] , no comment. 6.89

State recorded pKi with CDK1/cyclin B (Homo sapiens), entry Cc1ccc(Nc2nccc(-c3sc(=O)n(C)c3C)n2)cc1[N+](=O)[O-] [Compound 11] , no comment. 6.14

State recorded pKi with CDK1/cyclin B (Homo sapiens), entry Cc1c(-c2ccnc(Nc3ccc(Cl)cc3)n2)sc(=O)n1C [Compound 4] , no comment. 6.34

State recorded pKi with CDK1/cyclin B (Homo sapiens), entry COc1ccc(Nc2nccc(-c3sc(=O)n(C)c3C)n2)cc1 [Compound 6] , no comment. 6.59

State recorded pKi with CDK1/cyclin B (Homo sapiens), entry CC(=O)NCc1cccc(Nc2nccc(-c3sc(=O)n(C)c3C)n2)c1 [Compound 42] , no comment. 6.24

State recorded pKi with CDK1/cyclin B (Homo sapiens), entry Cc1c(-c2ccnc(Nc3ccc(N(C)C)c([N+](=O)[O-])c3)n2)sc(=O)n1C [Compound 22] , no comment. 7.09

State recorded pKi with CDK1/cyclin B (Homo sapiens), entry Cc1c(-c2ccnc(Nc3ccc(F)c([N+](=O)[O-])c3)n2)sc(=O)n1C [Compound 10] , no comment. 6.55

State recorded pKi with CDK1/cyclin B (Homo sapiens), entry CC(=O)N1CCN(c2ccc(Nc3nccc(-c4sc(=O)n(C)c4C)n3)cc2)CC1 [Compound 17] , no comment. 5.16

State recorded pKi with CDK1/cyclin B (Homo sapiens), entry Cc1c(-c2ccnc(Nc3ccc(Cl)nc3)n2)sc(=O)n1C [Compound 32] , no comment. 6.30

----------
Property: pKi; scope: individual molecules
# ASSAYED TARGET: CDK2/cyclin E (Homo sapiens, UniProt P24941)
# ASSAY PROTOCOL: Kinase assay CDK2/cyclin E
# TEST PARAMETERS: Ki calculated (Cheng-Prusoff) from experimentally determined IC50 and Km,ATP; read-out: Kinase Inhibition Ki CDK2 - cyclin E
pKi is defined as minus the log10 of a concentration measured in mol/L.

Guide cases for pKi, answers given:
SMI | pKi
CCn1c(C)c(-c2ccnc(Nc3cccc([N+](=O)[O-])c3)n2)sc1=O | 7.80
Cc1cc(Nc2nccc(-c3sc(=O)n(C)c3C)n2)ccc1Cl | 6.24
CC(=O)NCc1cccc(Nc2nccc(-c3sc(=O)n(C)c3C)n2)c1 | 7.47
Cc1ccc(Nc2nccc(-c3sc(=O)n(C)c3C)n2)cc1I | 6.46
Cc1c(-c2ccnc(Nc3ccc(N(C)C)cc3)n2)sc(=O)n1C | 6.12

State recorded pKi with CDK2/cyclin E (Homo sapiens, UniProt P24941), entry Cc1c(-c2ccnc(Nc3ccc(N4CCNCC4)c(Cl)c3)n2)sc(=O)n1C , no comment. 7.21

State recorded pKi with CDK2/cyclin E (Homo sapiens, UniProt P24941), entry Cc1ccc(Nc2nccc(-c3sc(=O)n(C)c3C)n2)cc1S(=O)(=O)N1CCOCC1 , no comment. 5.68

State recorded pKi with CDK2/cyclin E (Homo sapiens, UniProt P24941), entry Cc1c(-c2ccnc(Nc3ccc(Cl)c(CO)c3)n2)sc(=O)n1C , no comment. 7.55

State recorded pKi with CDK2/cyclin E (Homo sapiens, UniProt P24941), entry CCn1c(C)c(-c2ccnc(Nc3ccc(C)c(O)c3)n2)sc1=O , no comment. 7.82

State recorded pKi with CDK2/cyclin E (Homo sapiens, UniProt P24941), entry Cc1c(-c2ccnc(NCc3cccnc3)n2)sc(=O)n1C , no comment. 5.80

State recorded pKi with CDK2/cyclin E (Homo sapiens, UniProt P24941), entry Cc1c(-c2ccnc(Nc3ccc(Cl)nc3)n2)sc(=O)n1C , no comment. 7.17

State recorded pKi with CDK2/cyclin E (Homo sapiens, UniProt P24941), entry Cc1ccc(Nc2nccc(-c3sc(=O)[nH]c3C)n2)cc1[N+](=O)[O-] , no comment. 7.92

State recorded pKi with CDK2/cyclin E (Homo sapiens, UniProt P24941), entry Cc1c(-c2ccnc(Nc3cc([N+](=O)[O-])ccc3N(C)C)n2)sc(=O)n1C , no comment. 5.07

State recorded pKi with CDK2/cyclin E (Homo sapiens, UniProt P24941), entry CCn1c(C)c(-c2ccnc(Nc3ccc(OC)nc3)n2)sc1=O , no comment. 7.30

State recorded pKi with CDK2/cyclin E (Homo sapiens, UniProt P24941), entry Cc1c(-c2ccnc(Nc3cccc(S(=O)(=O)NC(C)C)c3)n2)sc(=O)n1C , no comment. 5.85

State recorded pKi with CDK2/cyclin E (Homo sapiens, UniProt P24941), entry CCn1c(C)c(-c2ccnc(Nc3ccc(N4CCOCC4)cc3)n2)sc1=O , no comment. 6.30

State recorded pKi with CDK2/cyclin E (Homo sapiens, UniProt P24941), entry Cc1cc(Nc2nccc(-c3sc(=O)n(C)c3C)n2)ccc1F , no comment. 7.18

State recorded pKi with CDK2/cyclin E (Homo sapiens, UniProt P24941), entry Cc1c(-c2ccnc(Nc3ccc(F)c([N+](=O)[O-])c3)n2)sc(=O)n1C , no comment. 6.89
